# Test system: SK-MEL-28
# Assay details: NCI tumour cell line growth inhibition, 48 h
Calls of active or inactive are those of the source. Rule as the data show it: active = GI50 up to about 1.1 µM and inactive = higher.
Value type: GI50

Solved cases (2 shown):
| Molecule | Value type | Reported result |
| --- | --- | --- |
| CC(=O)O[C@H](C[C@@H](C)[C@H]1C(=O)[C@H](O)[C@@]2(C)C3CC[C@H]4C(C)(C)[C@@H](OC5OCC(O)C(O)C5O)CC[C@@]45C[C@@]35CC[C@]12C)[C@@H]1OC1(C)C (stereo partly drawn) | GI50 | 20.3 µM (inactive) |
| Cc1ccccc1/N=C/c1ccc(N(CCC#N)S(=O)(=O)c2ccccc2)cc1 | GI50 | > 100 µM (inactive) |

For the molecule CN(C)CCCN1c2ccccc2C(C)(C)c2ccccc21 , what GI50 is on record?
15.4 µM (inactive)

---

# Test system: SK-MEL-28
# Assay details: NCI tumour cell line growth inhibition, 48 h
Activity calls are given as the source filed them. Rule as the data show it: active = GI50 up to about 1.1 µM and inactive = higher.
Entries and their GI50

| Compound | GI50 |
| --- | --- |
| CC(C)(C)OC(=O)NCCc1ccc(N)cc1 | > 100 µM (inactive) |

For COC1=CC(=O)c2c(O)ccc(O)c2C1=O , what is its reported GI50?
1.92 µM (inactive)

Would you kindly share the measured GI50 for COc1ccc(NCC(=O)Nn2c(C)nc3ccc(S(=O)(=O)Nc4ccc(OC)cc4)cc3c2=O)cc1 ?
> 100 µM (inactive)

Given the entry O=[N+]([O-])c1ccc(Cc2nc3ccccc3s2)cc1 , report its measured GI50.
> 100 µM (inactive)

What GI50 value was documented for this compound, Cc1ccc(S(=O)(=O)Nn2c(-c3ccccc3)c(C#N)c(-c3ccc([N+](=O)[O-])cc3)c(C#N)c2=O)cc1 ?
> 100 µM (inactive)

Can you look up the measured GI50 of C/C=C/COc1cc(NC(=S)c2ccoc2C)ccc1OC for me?
> 100 µM (inactive)

Entry COc1ccc2c(c1)NC1(O)c3ccccc3C(=O)C21O (configuration not stated) has what GI50?
> 100 µM (inactive)

# GI50 lookup, item CC(=O)OC(Cc1c(O)c2c(C)cccc2oc1=O)C(C)(C)O (configuration not stated)
88.1 µM (inactive)

Which GI50 is reported for this compound? C=C1[C@@H]([C@@]2(C)C=CC(=O)C(C)(C)[C@@H]2CC(=O)OC)CC[C@@]2(C)[C@H](c3ccoc3)OC(=O)[C@H]3O[C@]132 [ANDIROBIN]
> 100 µM (inactive)

Need GI50, item Cc1cc(S(=O)(=O)Nc2nc(N)nc(N(C)C)n2)c(SCC(=O)O)cc1Cl
> 10 µM (inactive)

Consider the compound CC(C)(O)/C1=C/C=C/CCCCCCCCCC1 and give its measured GI50.
> 100 µM (inactive)

Request the reported GI50 associated with CCOC(=O)Cc1nnc2n(-c3ccccc3)c(=O)c3ccccc3n12
55.7 µM (inactive)

---

Listing of recorded GI50 by entry.
# Tested on: UACC-257
# Assay details: NCI tumour cell line growth inhibition, 48 h
The source made the active and inactive calls. Rule as the data show it: active = GI50 up to about 1.1 µM and inactive = higher.

Study these solved cases before continuing.
| Compound | GI50 |
| --- | --- |
| CC(=O)C(CN(C)C)C(c1ccccc1)c1c(O)c2ccccc2oc1=O (stereo not drawn) | > 100 µM (inactive) |
| CC(=O)OC(OC(C)=O)c1ccc2ccc3cccc4ccc1c2c34 | 17.1 µM (inactive) |
| COc1ccc(CN2C[C@H]3[C@@H](CC(=O)O[C@H]3C)CC2=O)cc1 | > 100 µM (inactive) |
| Cc1ccc2nc(-c3ccccc3)cc(=O)n2c1 | > 10 µM (inactive) |
| OCCCNc1[nH]cnc2nncc1-2 | > 100 µM (inactive) |
| CC1S(=O)(=O)OCCOS1(=O)=O | > 94.2 µM (inactive) |

Next:
Which GI50 is reported for this compound? CC(=O)N1CN2C(=O)CCC2c2cc(C)ccc21 (stereo not drawn)
> 100 µM (inactive)
